Origin of measurements: PubChem BioAssay (NCATS)

experimentNotes: Quantitative High-Throughput drug screen in 47 multiple myeloma cell lines against the NCATS MIPE library collection: KMS12PE_JCRB cell viability assay (AID 1918972); further: nearly all actives have a fitted effect of over 30% in size
conditionLabel: KMS12PE myeloma viability, CellTiter-Glo ATP, 48 h; series mostly up to 45.8 µM
Inconclusive results are not listed. The source made the active and inactive calls. The call rests on the fitted dose curve; in most records, active means well fitted cell-killing curve with a large enough effect; inconclusive means small, poorly fitted or top-dose-only effect, or effect the other way; inactive means no such curve, though single readings can be large or run the other way.
Classes to choose from: yes (active), no (inactive)

Field: example entries. Status: answers known.
- molecule: "O=[N+]([O-])c1cn2c(n1)OC[C@@H](OCc1ccc(OC(F)(F)F)cc1)C2"
  classAssignment: "no"
- molecule: "C#C[C@]1(O)CC[C@@H]2[C@@H]3CCC4=CC(=O)CC[C@@H]4[C@H]3CC[C@@]21CC"
  classAssignment: "no"
- molecule: "CCC[C@H]1C[C@H](C(=O)N[C@@H]([C@@H]2O[C@@H](SC)[C@@H](O)[C@@H](O)[C@@H]2O)[C@H](C)Cl)N(C)C1"
  classAssignment: "no"
- molecule: "COc1cc(C)c(Sc2cnc(NC(=O)c3ccc(CNC(C)C(C)(C)C)cc3)s2)cc1C(=O)N1CCN(C(C)=O)CC1 (centres undefined)"
  classAssignment: "yes"
- molecule: "CN1CCCN(C(=O)c2cccc(-c3ccc(C=C4C(=O)Nc5ccc(Cl)cc54)o3)c2)CC1"
  classAssignment: "yes"

Q: Check the results log: what was the call for CC(=O)ON=C1C(c2c(O)[nH]c3cc(Br)ccc23)=Nc2ccccc21 ?
Ans: yes

Q: Check the results log: what was the call for COc1ccc2c(c1OC)C(=O)OC2[C@H]1c2c(cc3c(c2OC)OCO3)CCN1C (some centres undefined) ?
Ans: yes

Q: Check the results log: what was the call for CC[C@H]1OC(=O)[C@H](C)[C@@H](O[C@H]2C[C@@](C)(OC)[C@@H](O)[C@H](C)O2)[C@H](C)[C@@H](O[C@@H]2O[C@H](C)C[C@H](N(C)C)[C@@H]2O)[C@](C)(OC)C[C@@H](C)C(=O)[C@H](C)[C@@H](O)[C@]1(C)O ?
Ans: no

Q: Check the results log: what was the call for COc1ccc(C=Cc2cc(OC)c(OC)c(OC)c2)cc1NC(=O)[C@H](N)CO ?
Ans: yes

Q: Check the results log: what was the call for C=CC(=O)Nc1ccc2ncnc(Nc3ccc(OCc4cccc(F)c4)c(Cl)c3)c2c1 ?
Ans: yes

Q: Check the results log: what was the call for CCCCCCCCc1ccc(CCC(N)(CO)CO)cc1 ?
Ans: yes

Q: Check the results log: what was the call for CC(C)(O)CC[C@@H](O)[C@](C)(O)[C@H]1CC[C@@]2(O)C3=CC(=O)[C@@H]4C[C@@H](O)[C@@H](O)C[C@]4(C)[C@@H]3CC[C@]12C ?
Ans: no

Q: Check the results log: what was the call for COc1cc(O)c2c(c1)C1OC1C[C@H](O)[C@H](O)C(=O)C=CC[C@H](C)OC2=O (some centres undefined) ?
Ans: yes

Q: Check the results log: what was the call for CCCNC(=O)[C@H]1O[C@H]1C(=O)N[C@H](C(=O)N1CCC[C@@H]1C(=O)OC)C(C)CC (some centres undefined) ?
Ans: yes

Q: Check the results log: what was the call for CCOC(=O)N1CCN([N+]([O-])=NOc2ccc([N+](=O)[O-])cc2[N+](=O)[O-])CC1 ?
Ans: yes

Q: Check the results log: what was the call for Oc1ccc(-c2ccc(-c3cc(Nc4cccc(CNC5CC5)c4)n[nH]3)cc2)c(O)c1 ?
Ans: yes

Q: Check the results log: what was the call for CC(C)c1cc(C(C)C)c(CC(=O)NS(=O)(=O)Oc2c(C(C)C)cccc2C(C)C)c(C(C)C)c1 ?
Ans: yes

Q: Check the results log: what was the call for CCC(C=C[C@@H]1OC(=O)C=C[C@H]1C)=C[C@H](C)CC=CC(C)=C[C@@H](C)C(=O)[C@@H](C)[C@H](O)[C@@H](C)CC(C)=CC(=O)O ?
Ans: yes

Q: Check the results log: what was the call for C=C1C(=CC=C2CCC[C@]3(C)[C@@H]([C@H](C)CCCC(C)(C)O)CC[C@@H]23)C[C@@H](O)C[C@@H]1O ?
Ans: yes

Q: Check the results log: what was the call for C[C@H](NC(=O)C(C#N)=Cc1cccc(Br)n1)c1ccccc1 ?
Ans: yes

Q: Check the results log: what was the call for NC(=O)c1cccc(-c2cccc(OC(=O)NC3CCCCC3)c2)c1 ?
Ans: no

Q: Check the results log: what was the call for C[C@@H]1CC[C@@]2(OC1)OC1CC3C4CC=C5CC(O)CCC5(C)C4CCC3(C)C1[C@@H]2C (some centres undefined) ?
Ans: no

Q: Check the results log: what was the call for COC(=O)[C@@H]1CC2=CC(=O)CC[C@]2(C)[C@@]23O[C@@H]2C[C@@]2(C)[C@H](CC[C@@]24CCC(=O)O4)[C@@H]13 ?
Ans: no

Q: Check the results log: what was the call for CC(C)C[C@H](NC(=O)CNC(=O)c1cc(Cl)ccc1Cl)B1OC(=O)CC(CC(=O)O)(C(=O)O)O1 (some centres undefined) ?
Ans: yes
